target.of.assay: human Acid Phosphatase 1 (ACP1), ACP1 (gene 52) (UniProt P24666)
Sequence (P24666 whole entry, looked up): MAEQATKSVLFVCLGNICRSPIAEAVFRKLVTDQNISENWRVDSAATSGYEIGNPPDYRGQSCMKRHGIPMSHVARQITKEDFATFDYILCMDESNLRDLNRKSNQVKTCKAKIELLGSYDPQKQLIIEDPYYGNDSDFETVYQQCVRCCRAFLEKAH
experiment.notes: NVS_ENZ_hACP1: NovaScreen (NVS) Enzymatic Assay for human Acid Phosphatase 1 (ACP1) (AID 2283136)
Records with an inconclusive call do not appear. Active and inactive are the calls of the source. How the source made its calls: active means hit-call score of the fitted dose curve at least 0.9, where 1 is the maximum; inconclusive means response in the unintended direction; inactive means score below 0.9.

compound | AC50
C#CCN1C(=O)COc2cc(F)c(N3C(=O)C4=C(CCCC4)C3=O)cc21 | inactive
O=S(=O)(O)C(F)(F)C(F)(F)C(F)(F)C(F)(F)C(F)(F)C(F)(F)C(F)(F)C(F)(F)F | 24.7 µM (active)
CC(C)(C)C(O)C(Oc1ccc(Cl)cc1)n1cncn1 (centres undefined) | inactive
Oc1cc(Cl)ccc1Oc1ccc(Cl)cc1Cl | inactive

The reported measurements were obtained from PubChem BioAssay (EPA / NIEHS).
